Target: T1, recombinant human EphB4 (rhEphB4) (human, UniProt P54760 16-539, limits assumed)
T1 construct: Bought protein; also called purified EphB4; immobilized EphB4
T1 sequence (looked up): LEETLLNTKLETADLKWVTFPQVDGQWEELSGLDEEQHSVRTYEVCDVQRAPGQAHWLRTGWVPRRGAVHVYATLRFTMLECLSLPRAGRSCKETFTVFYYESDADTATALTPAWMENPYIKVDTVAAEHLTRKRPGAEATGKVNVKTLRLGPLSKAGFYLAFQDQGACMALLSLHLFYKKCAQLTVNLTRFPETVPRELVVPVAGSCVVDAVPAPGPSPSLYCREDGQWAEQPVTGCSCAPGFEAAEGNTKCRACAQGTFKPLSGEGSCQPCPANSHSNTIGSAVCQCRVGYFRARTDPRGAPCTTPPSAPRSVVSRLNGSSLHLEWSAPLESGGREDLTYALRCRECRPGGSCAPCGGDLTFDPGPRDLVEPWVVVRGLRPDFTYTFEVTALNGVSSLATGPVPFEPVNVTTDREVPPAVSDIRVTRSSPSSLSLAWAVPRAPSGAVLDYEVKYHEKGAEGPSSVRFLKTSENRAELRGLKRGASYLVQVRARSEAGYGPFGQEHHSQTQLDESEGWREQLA
Assay: SPR, peptide over immobilized EphB4
Square brackets hold non-standard residues; d marks the D form. Ends that are not written are not given here.
Assign Kd to each entry below.
Answer with the number, then the unit.

[in] # Kd lookup, item KTNYLFSPNGPIARAWD (not fully specified (bridges); printed as Cyclo(KTNYLFSPNGPIARAWD); also: cyclic, ring-closing atoms not given here) [B4-001, Cyclo(KTNYLFSPNGPIARAWD)]
[out] 0.0044 µM

[in] Moving on to the next binder: TNYLFSPNGPIARA (also called TNYL-RAW truncated of C-terminus Trp-P15) [B4-008, TNYLFSPNGPIARA]
[out] 0.013 µM

[in] Moving on to the next binder: TNYL[dF]SPNGPIARAW [B4-005, TNYL(dF)SPNGPIARAW]
[out] 0.075 µM

[in] Moving on to the next binder: TNY[dL]FSPNGPIARAW [B4-004, TNY(dL)FSPNGPIARAW]
[out] 0.065 µM

[in] Moving on to the next binder: TNYLFSPNGPIARAW (D-Arg at position 13) [B4-002, TNYLFSPNGPIA(dR)AW]
[out] 0.039 µM

[in] Moving on to the next binder: TNYLFSPNGPIARAW (also called EphB4 antagonist TNYL-RAW peptide) [TNYL-RAW]
[out] 0.0031 µM
